- Experiment description: Pharmacokinetics and total colon tissue distribution in mice
- Type: in vivo, male C57BL/6 mice
- Experimental conditions: male, C57BL/6, po; Mouse, 5 mg/kg p.o., Plasma
Readout label: AUC(0-inf) (ng·h/mL)
Report only the number, with the unit ng·h/mL understood.

Asked: For C#Cc1cc(Nc2nccc(Oc3ccc(NC(=O)Nc4cc(C(C)(C)C)nn4-c4ccc(OC)cc4)c4ccccc34)n2)cc(C(=O)NCCN2CCOCC2)c1 , what is its reported AUC(0-inf)?
Given back: 29

----------
- Experiment description: Pharmacokinetics, plasma and total colon tissue distribution in rats
- Format: in vivo, male Wistar rats
- Experimental conditions: male, Wistar, plasma; Rat, intravenous 0.25 mg/kg
Readout label: AUC(0-inf) (ng·h/mL)
The reply should be a number in ng·h/mL, with the unit left off.

Asked: Can you share its AUC(0-inf)? I mean this compound: C#Cc1cc(Nc2nccc(Oc3ccc(NC(=O)Nc4cc(C(C)(C)C)nn4-c4ccc(OC)cc4)c4ccccc34)n2)cc(C(=O)NCCN2CCOCC2)c1
Given back: 1190

----------
- Experiment description: Pharmacokinetics and total colon tissue distribution in mice
- Format: in vivo, male C57BL/6 mice
- Experimental conditions: male, C57BL/6, total colon tissue, po; Mouse, 5 mg/kg p.o., Total colon
Readout label: Cmax (ng/mL)
State just the number; it will be interpreted in ng/mL.

Asked: Which Cmax is reported for this molecule? C#Cc1cc(Nc2nccc(Oc3ccc(NC(=O)Nc4cc(C(C)(C)C)nn4-c4ccc(OC)cc4)c4ccccc34)n2)cc(C(=O)NCCN2CCOCC2)c1
Given back: 1070

----------
- Study system: p38 MAPKα isoform (MAPK14) (Homo sapiens (Human))
- Sequence (Q16539 whole entry, canonical isoform): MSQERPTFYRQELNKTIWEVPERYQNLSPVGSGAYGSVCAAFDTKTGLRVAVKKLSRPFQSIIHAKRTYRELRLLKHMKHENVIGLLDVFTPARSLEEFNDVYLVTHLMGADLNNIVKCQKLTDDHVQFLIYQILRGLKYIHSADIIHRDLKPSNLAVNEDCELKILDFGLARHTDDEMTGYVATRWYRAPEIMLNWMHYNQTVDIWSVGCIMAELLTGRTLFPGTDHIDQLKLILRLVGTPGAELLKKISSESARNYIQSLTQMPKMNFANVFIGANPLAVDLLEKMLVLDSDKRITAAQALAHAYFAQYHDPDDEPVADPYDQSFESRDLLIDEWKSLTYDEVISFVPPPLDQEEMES
- Experiment description: p38 MAPKα enzyme inhibition (FRET, Z-LYTE), Method 1
- Format: biochemical
- Experimental conditions: Method 1 (Table 4a1)
The compounds listed here are annotated with their pIC50.
// pIC50 is dimensionless: -log10 of concentration (M)

Asked: What value of pIC50 has been recorded for this entry: COc1ccc(-n2nc(C(C)C)cc2NC(=O)Nc2ccc(Oc3ccnc(Nc4cc(OC)cc(C(=O)NCCO)c4)n3)c3ccccc23)cc1
Given back: 7.64

Asked: Fill in: pIC50 of COc1ccc(-n2nc(C(C)C)cc2NC(=O)Nc2ccc(Oc3ccnc(Nc4cccc(C(=O)NCCN5CCOCC5)c4)n3)c3ccccc23)cc1 is ___
Given back: 8.30

Asked: If you can, please state the reported pIC50 value of COc1cc(C(=O)NCCN2CCOCC2)ccc1Nc1nccc(Oc2ccc(NC(=O)Nc3cc(C(C)C)nn3-c3ccc(C)cc3)c3ccccc23)n1 .
Given back: 7.89

Asked: Entry COc1ccc(-n2nc(C3CCOC3)cc2NC(=O)Nc2ccc(Oc3ccnc(Nc4cc(OC)cc(C(=O)NCCN5CCOCC5)c4)n3)c3ccccc23)cc1 (stereo not drawn) : reported pIC50 = ?
Given back: 8.70

Asked: Suppose we examine the compound COc1ccc(-n2nc(C(C)C)cc2NC(=O)Nc2ccc(Oc3ccnc(Nc4cc(OC)cc(C(=O)NCCN5CCOCC5)c4)c3)c3ccccc23)cc1 ; what pIC50 value has been reported?
Given back: 8.15

----------
- Experiment description: Pharmacokinetics, plasma and total colon tissue distribution in rats
- Format: in vivo, male Wistar rats
- Experimental conditions: male, Wistar, plasma; Rat, intravenous 0.25 mg/kg
Readout label: clearance
Note: a bare number is incomplete; add the unit.

Asked: Which clearance is listed for C#Cc1cc(Nc2nccc(Oc3ccc(NC(=O)Nc4cc(C(C)(C)C)nn4-c4ccc(OC)cc4)c4ccccc34)n2)cc(C(=O)NCCN2CCOCC2)c1 ?
Given back: 3.5 mL/min/kg
